Origin of the recorded values: patent US11952365B2

System: SARS-CoV-2-GHB-03021/2020
Assay: microbe, parasite or virus in culture
Assay type: cell-based
Conditions: Severe acute respiratory syndrome coronavirus 2, Vero C1008, 96 h; read-out: VeroE6 + CP (EC50)
pEC50: −log10 of the molar value.
Reported pEC50 values for a set of molecules

Query: Would you mind telling me what pEC50 value was observed for CO[C@@H]1C[C@@H](C(=O)NC(C[C@@H]2CCNC2=O)C(=O)C(=O)NCc2ccccc2)N(C(=O)c2cc3ccccc3[nH]2)C1 (stereo partly drawn) ?
Reply: < 4.00

Query: What value of pEC50 has been recorded for this entry: COc1cccc2[nH]c(C(=O)N3C[C@@H]4CCC[C@@H]4[C@H]3C(=O)N[C@@H](C[C@@H]3CCNC3=O)C(=O)COP(=O)(O)O)cc12
Reply: 5.00 to 6.00

Query: Using the record for COc1cccc2[nH]c(C(=O)N3CC4(CC4)C[C@H]3C(=O)N[C@@H](C[C@@H]3CCNC3=O)C(=O)CO)cc12 , report its pEC50.
Reply: 5.00 to 6.00

Query: Find the recorded pEC50 belonging to COc1cccc2[nH]c(C(=O)N3C[C@@H]4CCC[C@@H]4[C@H]3C(=O)N[C@@H](C[C@H]3CC(C)(C)NC3=O)C(=O)CO)cc12 and report it.
Reply: 4.00 to 5.00

Query: Value lookup for pEC50; key = O=C1NCC[C@H]1C[C@H](NC(=O)[C@@H]1[C@H]2CCC[C@H]2CN1C(=O)c1cc2c(Cl)cccc2[nH]1)C(=O)COCc1ccccc1 [Compound 60A]
Reply: 5.00 to 6.00

Query: Consider the molecule CC1(C)[C@@H]2[C@@H](C(=O)N[C@@H](C[C@@H]3CCNC3=O)C(=O)CO)N(C(=O)c3cc4c(Cl)cc(Cl)cc4[nH]3)C[C@@H]21 and give its measured pEC50.
Reply: > 6.00

Query: Consider the molecule shown here: O=C(NCc1ccccc1)C(=O)[C@H](C[C@@H]1CCNC1=O)NC(=O)[C@@H]1C[C@]2(CN1C(=O)c1cc3ccccc3[nH]1)CC2(F)F What is its recorded pEC50?
Reply: 4.00 to 5.00

Query: Requested field: pEC50. Item: Cc1cccc2[nH]c(C(=O)N3CCC4(CC4)C[C@H]3C(=O)N[C@@H](C[C@@H]3CCNC3=O)C(=O)C(=O)NC3CC3)cc12
Reply: 5.00 to 6.00
